system-under-test: EP3 receptor (UniProt A0A286XLZ9)
experimental-details: EP3-activity: inhibition of the twitch response induced by electrical field stimulation in the isolated guinea pig vas deferens
Type: cell-based
protocol-conditions: pa = printed beside some values, read-out: EC50 (nM) EP3, first value of the cell
measure-name: EC50 (nM)

// known answers, use as guide
[
  {
    "molecule": "O=C(O)CCC/C=C\\C[C@@H]1[C@@H](/C=C/[C@@H](O)CCc2cc(Br)cs2)[C@H](O)C[C@@H]1O",
    "units-of-measure": "nM",
    "EC50": 50
  },
  {
    "molecule": "O=C(O)CCC/C=C\\C[C@@H]1[C@@H](/C=C/[C@@H](O)CCc2cc3ccccc3o2)[C@H](O)C[C@@H]1O",
    "units-of-measure": "nM",
    "EC50": 9000
  },
  {
    "molecule": "O=C(O)CCC/C=C\\C[C@@H]1[C@@H](/C=C/[C@@H](O)CCc2ccco2)[C@H](O)C[C@@H]1O",
    "units-of-measure": "nM",
    "EC50": 44
  },
  {
    "molecule": "O=C(O)CCC/C=C\\C[C@@H]1[C@@H](/C=C/[C@@H](O)CCc2ccc(Br)s2)[C@H](O)C[C@@H]1O",
    "units-of-measure": "nM",
    "EC50": 36
  },
  {
    "molecule": "O=C(O)CCC/C=C\\C[C@@H]1[C@@H](CC[C@@H](O)CCc2ccsc2)[C@H](O)C[C@@H]1O",
    "units-of-measure": "nM",
    "EC50": 105
  },
  {
    "molecule": "Cc1cc(CC[C@H](O)/C=C/[C@@H]2[C@@H](C/C=C\\CCCC(=O)O)[C@@H](O)C[C@H]2O)cs1",
    "units-of-measure": "nM",
    "EC50": 305
  }
]

a. Cc1sccc1CC[C@H](O)/C=C/[C@@H]1[C@@H](C/C=C\CCCC(=O)O)[C@@H](O)C[C@H]1O
b. O=C(O)CCC/C=C\C[C@@H]1[C@@H](/C=C/[C@@H](O)CCc2cccs2)[C@H](O)C[C@@H]1O
Incoming: Return label of the item with the larger EC50. Candidates: a , b . // caller expects the label of the chosen entry
Outgoing: a

I. O=C(O)CCC/C=C\C[C@@H]1[C@@H](/C=C/[C@@H](O)CCc2ccsc2Cl)[C@H](O)C[C@@H]1O
II. CO[C@H](/C=C/[C@@H]1[C@@H](C/C=C\CCCC(=O)O)[C@@H](O)C[C@H]1O)CCc1ccsc1
Incoming: For the pair I and II , which member has the lower EC50 number? State the label of the item chosen.
Outgoing: II

A. O=C(O)CCC/C=C\C[C@@H]1[C@@H](/C=C/[C@@H](O)CCc2ccoc2)[C@H](O)C[C@@H]1O
B. O=C(O)CCC/C=C\C[C@@H]1[C@@H](/C=C/[C@@H](O)CCc2ccsc2)[C@H](O)C[C@@H]1O [drawing 12]
Incoming: Which value of EC50 is numerically greater: that of A or that of B ? Refer to your chosen entry by its label in the reply.
Outgoing: B
(B: 400 nM, A: 83 nM)
